Tested on: WM1552C (Melanoma)
Assay: combination Emax (second highest fraction inhibited in the dose matrix, 72 h); higher = more inhibition; extreme values may be limits of the assay
Would you kindly list combination Emax for each of these compounds?
# answer = number (no unit)

QUERY: What measured combination Emax is associated with C=CCn1c(=O)c2cnc(Nc3ccc(N4CCN(C)CC4)cc3)nc2n1-c1cccc(C(C)(C)O)n1 [AZD1775] + C[C@@H]1COCCN1C2=NC(=NC(=C2)C3(CC3)[S@](=N)(=O)C)C4=C5C=CNC5=NC=C4 [AZD6738] (first compound max 1 µM, partner max 10 µM) on WM1552C (Melanoma)?
RESULT: 0.805

QUERY: What measured combination Emax is associated with Cc1cc2ncnn2cc1Nc1ncc2c(n1)n(C1CCOCC1)c(=O)n2C [AZD7648] + COc1cc([C@@H]2c3cc4c(cc3[C@@H](O[C@@H]3O[C@@H]5CO[C@@H](C)O[C@H]5[C@H](O)[C@H]3O)[C@H]3COC(=O)[C@H]23)OCO4)cc(OC)c1O [Etoposide] (first compound max 10 µM, 7x7, partner max 10 µM) on WM1552C (Melanoma)?
RESULT: 0.507

QUERY: What measured combination Emax is associated with CC1(C)CCC(CN2CCN(c3ccc(C(=O)NS(=O)(=O)c4ccc(NCC5CCOCC5)c([N+](=O)[O-])c4)c(Oc4cnc5[nH]ccc5c4)c3)CC2)=C(c2ccc(Cl)cc2)C1 [Venetoclax] + Cn1cnc2c(F)c(Nc3ccc(Br)cc3Cl)c(C(=O)NOCCO)cc21 [Selumetinib] (first compound max 1 µM, 7x7, partner max 3 µM) on WM1552C (Melanoma)?
RESULT: 0.488

QUERY: What measured combination Emax is associated with COc1cc2c(cc1OCCCCCOc1cc3c(cc1OC)C(=O)N1C=C(C)C[C@H]1C=N3)N=C[C@@H]1CC(C)=CN1C2=O [SG3199] + O=C(c1cc(Cc2n[nH]c(=O)c3ccccc23)ccc1F)N1CCN(C(=O)C2CC2)CC1 [Olaparib] (first compound max 0.001 µM, 7x7, partner max 10 µM) on WM1552C (Melanoma)?
RESULT: 0.178

QUERY: What measured combination Emax is associated with Cc1c2c(nn1C)CSCc1cc(n(C)n1)CSc1cc(c3ccccc3c1)OCCCc1c(C(=O)O)n(C)c3c-2c(Cl)ccc13 [AZD5991] + CN(C)CCCOc1ccc(-c2ccc3ncc4c(c3c2)n(C2CCOCC2)c(=O)n4C)cn1 [AZD0156] (first compound max 1 µM, 7x7, partner max 1 µM) on WM1552C (Melanoma)?
RESULT: 0.76

QUERY: What measured combination Emax is associated with CCN(CCO)CCCOc1ccc2c(Nc3cc(CC(=O)Nc4cccc(F)c4)[nH]n3)ncnc2c1 [AZD2811] + C=CCn1c(=O)c2cnc(Nc3ccc(N4CCN(C)CC4)cc3)nc2n1-c1cccc(C(C)(C)O)n1 [AZD1775] (first compound max 1 µM, partner max 1 µM) on WM1552C (Melanoma)?
RESULT: 0.424

QUERY: What measured combination Emax is associated with O=C(c1cc(Cc2n[nH]c(=O)c3ccccc23)ccc1F)N1CCN(C(=O)C2CC2)CC1 [Olaparib] + CC1(C)CCC(CN2CCN(c3ccc(C(=O)NS(=O)(=O)c4ccc(NCC5CCOCC5)c([N+](=O)[O-])c4)c(Oc4cnc5[nH]ccc5c4)c3)CC2)=C(c2ccc(Cl)cc2)C1 [Venetoclax] (first compound max 10 µM, 7x7, partner max 1 µM) on WM1552C (Melanoma)?
RESULT: 0.319
